The following sequences are shown together with reported PBM binding z-score values.
test system: THRa homodimer (NR concentration 90 nM); assay: PBM binding z-score (relative to random genomic background probes); higher = stronger binding; sequences stand for … in GC…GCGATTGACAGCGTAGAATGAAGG
Quick one: just the number, no unit, thanks!

Given the entry `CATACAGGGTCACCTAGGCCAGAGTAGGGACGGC` , report its measured PBM binding z-score.
1.57

Given the entry `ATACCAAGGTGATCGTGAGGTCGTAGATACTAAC` , report its measured PBM binding z-score.
2.52

Given the entry `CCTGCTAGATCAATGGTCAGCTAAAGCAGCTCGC` , report its measured PBM binding z-score.
-1.01

Given the entry `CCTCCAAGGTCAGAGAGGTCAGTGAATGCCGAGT` , report its measured PBM binding z-score.
2.59

Given the entry `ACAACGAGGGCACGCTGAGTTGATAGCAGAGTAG` , report its measured PBM binding z-score.
-0.067

// switching to the query sequence
Given the entry `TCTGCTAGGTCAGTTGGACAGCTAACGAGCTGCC` , report its measured PBM binding z-score.
-0.399

----------
system: THRa homodimer (NR concentration 90 nM); assay: PBM binding z-score (relative to random genomic background probes); higher = stronger binding; sequences stand for … in GC…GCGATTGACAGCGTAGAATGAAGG
value.type: PBM binding z-score
Quick one: just the number, no unit, thanks!

Given the entry `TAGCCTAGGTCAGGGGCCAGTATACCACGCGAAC` , report its measured PBM binding z-score.
0.583

Given the entry `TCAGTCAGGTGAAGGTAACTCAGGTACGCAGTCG` , report its measured PBM binding z-score.
1.34

Given the entry `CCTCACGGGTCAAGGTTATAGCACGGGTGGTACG` , report its measured PBM binding z-score.
0.624

***
Given the entry `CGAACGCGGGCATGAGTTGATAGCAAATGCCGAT` , report its measured PBM binding z-score.
-0.72

Given the entry `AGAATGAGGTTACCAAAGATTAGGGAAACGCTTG` , report its measured PBM binding z-score.
0.581

Given the entry `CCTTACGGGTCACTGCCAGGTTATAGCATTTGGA` , report its measured PBM binding z-score.
0.811

Given the entry `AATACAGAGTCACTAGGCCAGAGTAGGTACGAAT` , report its measured PBM binding z-score.
-0.685

----------
test system: PPARa:RXRa (NR concentration 270 nM, RXRa partner concentration 90 nM); experiment: PBM binding z-score (relative to random genomic background probes); higher = stronger binding; sequences stand for … in GC…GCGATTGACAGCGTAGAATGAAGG
Think of 2 as a floor: if PBM binding z-score stands on it or above, it is Y; beneath it, N.

Evaluate `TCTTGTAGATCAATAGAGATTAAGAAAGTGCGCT` : PBM binding z-score at minimum 2?
N

***
Evaluate `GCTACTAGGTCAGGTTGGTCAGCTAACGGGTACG` : PBM binding z-score at minimum 2?
Y

----------
The following sequences are shown together with reported PBM binding z-score values.
tested on: RARa:RXR (NR concentration 270 nM, RXRa partner concentration 90 nM); experiment: PBM binding z-score (relative to random genomic background probes); higher = stronger binding; sequences stand for … in GC…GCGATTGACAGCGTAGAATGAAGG

Given the entry `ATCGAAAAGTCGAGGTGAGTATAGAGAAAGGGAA` , report its measured PBM binding z-score.
0.0313

***
Given the entry `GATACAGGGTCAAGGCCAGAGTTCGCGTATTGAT` , report its measured PBM binding z-score.
5.07

Given the entry `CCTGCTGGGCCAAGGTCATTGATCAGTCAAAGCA` , report its measured PBM binding z-score.
3.92

Given the entry `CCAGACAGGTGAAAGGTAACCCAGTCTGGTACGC` , report its measured PBM binding z-score.
1.53

Given the entry `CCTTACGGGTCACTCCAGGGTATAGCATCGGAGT` , report its measured PBM binding z-score.
3.65

Given the entry `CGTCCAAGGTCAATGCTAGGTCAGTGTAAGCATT` , report its measured PBM binding z-score.
5.95

----------
system: PPARa:RXRa (NR concentration 270 nM, RXRa partner concentration 90 nM); assay: PBM binding z-score (relative to random genomic background probes); higher = stronger binding; sequences stand for … in GC…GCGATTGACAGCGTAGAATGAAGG
Think of 3 as a floor: if PBM binding z-score stands on it or above, it is YES; beneath it, NO.

Please review the entries below; each comes with its answer.
Evaluate `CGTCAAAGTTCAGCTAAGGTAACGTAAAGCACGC` : PBM binding z-score at minimum 3?
YES

Evaluate `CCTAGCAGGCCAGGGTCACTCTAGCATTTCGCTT` : PBM binding z-score at minimum 3?
NO

***
Evaluate `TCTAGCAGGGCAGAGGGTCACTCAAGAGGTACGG` : PBM binding z-score at minimum 3?
NO

Evaluate `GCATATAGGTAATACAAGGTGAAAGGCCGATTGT` : PBM binding z-score at minimum 3?
NO

Evaluate `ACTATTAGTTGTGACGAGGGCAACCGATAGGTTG` : PBM binding z-score at minimum 3?
NO

Evaluate `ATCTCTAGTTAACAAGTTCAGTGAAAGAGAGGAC` : PBM binding z-score at minimum 3?
NO

Evaluate `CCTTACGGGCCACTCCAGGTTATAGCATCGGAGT` : PBM binding z-score at minimum 3?
NO

Evaluate `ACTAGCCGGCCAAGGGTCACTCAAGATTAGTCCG` : PBM binding z-score at minimum 3?
YES

Evaluate `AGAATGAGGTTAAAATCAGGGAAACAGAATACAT` : PBM binding z-score at minimum 3?
YES

Evaluate `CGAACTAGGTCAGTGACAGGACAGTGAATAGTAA` : PBM binding z-score at minimum 3?
YES

Evaluate `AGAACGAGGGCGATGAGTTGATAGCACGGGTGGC` : PBM binding z-score at minimum 3?
NO

Evaluate `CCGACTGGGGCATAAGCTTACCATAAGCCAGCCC` : PBM binding z-score at minimum 3?
NO

Evaluate `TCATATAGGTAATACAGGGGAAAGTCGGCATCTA` : PBM binding z-score at minimum 3?
NO

Evaluate `GGAACGAGGGCATCCGAGTTGATAGCATGGCGAT` : PBM binding z-score at minimum 3?
NO

Evaluate `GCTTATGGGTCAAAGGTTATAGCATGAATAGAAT` : PBM binding z-score at minimum 3?
YES

Evaluate `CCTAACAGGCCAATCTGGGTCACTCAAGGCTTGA` : PBM binding z-score at minimum 3?
YES

Evaluate `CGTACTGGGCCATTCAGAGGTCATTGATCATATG` : PBM binding z-score at minimum 3?
YES

Evaluate `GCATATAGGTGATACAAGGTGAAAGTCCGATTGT` : PBM binding z-score at minimum 3?
NO

Evaluate `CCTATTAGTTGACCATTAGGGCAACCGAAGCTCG` : PBM binding z-score at minimum 3?
NO

Evaluate `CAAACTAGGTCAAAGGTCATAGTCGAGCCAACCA` : PBM binding z-score at minimum 3?
YES

Evaluate `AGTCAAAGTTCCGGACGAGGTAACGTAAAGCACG` : PBM binding z-score at minimum 3?
NO

Evaluate `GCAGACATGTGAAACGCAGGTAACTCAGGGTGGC` : PBM binding z-score at minimum 3?
NO

Evaluate `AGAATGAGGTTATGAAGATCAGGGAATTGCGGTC` : PBM binding z-score at minimum 3?
NO

Evaluate `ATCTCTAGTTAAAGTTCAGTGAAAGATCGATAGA` : PBM binding z-score at minimum 3?
NO

Evaluate `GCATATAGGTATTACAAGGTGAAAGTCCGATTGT` : PBM binding z-score at minimum 3?
NO

----------
tested on: VDR:RXRa (NR concentration 270 nM, RXRa partner concentration 90 nM); assay: PBM binding z-score (relative to random genomic background probes); higher = stronger binding; sequences stand for … in GC…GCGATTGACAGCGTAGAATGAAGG
value.type: PBM binding z-score

Example entries and their recorded answers appear below.
Given the entry `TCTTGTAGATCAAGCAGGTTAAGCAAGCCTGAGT` , report its measured PBM binding z-score.
0.328

Given the entry `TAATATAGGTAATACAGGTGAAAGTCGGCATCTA` , report its measured PBM binding z-score.
0.659

Given the entry `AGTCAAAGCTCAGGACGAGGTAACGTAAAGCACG` , report its measured PBM binding z-score.
-0.317

// switching to the query sequence
Given the entry `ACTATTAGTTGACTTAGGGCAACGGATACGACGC` , report its measured PBM binding z-score.
0.248

----------
system: LXRb:RXRa (NR concentration 270 nM, RXRa partner concentration 90 nM); assay: PBM binding z-score (relative to random genomic background probes); higher = stronger binding; sequences stand for … in GC…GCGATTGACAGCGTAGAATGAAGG
The following sequences are shown together with reported PBM binding z-score values.

Example entries and their recorded answers appear below.
Given the entry `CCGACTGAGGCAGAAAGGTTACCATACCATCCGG` , report its measured PBM binding z-score.
0.877

Given the entry `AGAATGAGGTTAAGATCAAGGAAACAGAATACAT` , report its measured PBM binding z-score.
1.71

Given the entry `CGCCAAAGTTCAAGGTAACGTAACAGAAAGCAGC` , report its measured PBM binding z-score.
3.55

***
Given the entry `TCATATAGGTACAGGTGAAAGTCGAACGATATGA` , report its measured PBM binding z-score.
0.777

Given the entry `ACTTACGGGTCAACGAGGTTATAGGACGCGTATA` , report its measured PBM binding z-score.
4.43

Given the entry `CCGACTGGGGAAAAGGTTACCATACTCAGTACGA` , report its measured PBM binding z-score.
1.29

Given the entry `GGAACGAGGGCATCCGAGTTGATAGCATGGCGAT` , report its measured PBM binding z-score.
-0.129

Given the entry `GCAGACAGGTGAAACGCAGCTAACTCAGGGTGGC` , report its measured PBM binding z-score.
-0.728

Value source: the supplement of paper PMC6555819
